Biological target: ZmDRIK1-K217-P492 (Zea mays)
Construct: kinase domain, K217-P492
Sequence (C0P4K9 1-514): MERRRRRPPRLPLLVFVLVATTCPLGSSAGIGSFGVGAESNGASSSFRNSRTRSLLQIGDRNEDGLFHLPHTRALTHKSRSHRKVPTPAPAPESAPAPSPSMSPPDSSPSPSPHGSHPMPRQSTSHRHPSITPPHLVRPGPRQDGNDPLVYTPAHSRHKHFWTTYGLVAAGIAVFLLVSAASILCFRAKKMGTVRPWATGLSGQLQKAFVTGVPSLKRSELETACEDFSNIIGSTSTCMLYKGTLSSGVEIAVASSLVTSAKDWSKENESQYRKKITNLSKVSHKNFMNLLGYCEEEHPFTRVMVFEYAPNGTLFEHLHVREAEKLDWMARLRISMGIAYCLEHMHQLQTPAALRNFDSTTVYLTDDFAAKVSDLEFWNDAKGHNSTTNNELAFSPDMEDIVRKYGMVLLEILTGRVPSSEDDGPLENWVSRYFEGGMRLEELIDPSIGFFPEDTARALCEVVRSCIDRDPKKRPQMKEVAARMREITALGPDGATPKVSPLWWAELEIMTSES
Experiment: biochemical
Details: read-out: dTm B, sheet ZmDRIK1-K217-P492;; DSF, Boltzmann fit, 0.1% DMSO
attribute.measured: ΔTm at 10 µM (°C)

compound: N#C/C(=C(/N)Sc1ccc(N)cc1)c1ccccc1C(F)(F)F [SL-327]
measured.target: ZmDRIK1-K217-P492 (Zea mays)
value: -0.701
//
compound: CCc1cncnc1N1CCN(Cc2nc3ccc(C(F)(F)F)cc3[nH]2)CC1 [PF-4708671]
measured.target: ZmDRIK1-K217-P492 (Zea mays)
value: -0.666
//
compound: Cc1nc(Nc2n[nH]c3c2CN(C(=O)N[C@H](CN(C)C)c2ccccc2)C3(C)C)c2sccc2n1 [PF-3758309]
measured.target: ZmDRIK1-K217-P492 (Zea mays)
value: -0.748
//
compound: O=c1cc(N2CCOCC2)oc2c(-c3ccccc3)cccc12 [LY294002]
measured.target: ZmDRIK1-K217-P492 (Zea mays)
value: -0.874
//
compound: CC1=C(C(=O)Nc2cc3cn[nH]c3cc2F)C(c2ccc(C(F)(F)F)cc2)CC(=O)N1 (stereo not shown) [GSK429286A]
measured.target: ZmDRIK1-K217-P492 (Zea mays)
value: -1.02
//
compound: C=CC(=O)Nc1ccc2ncnc(Nc3cccc(Br)c3)c2c1 [PD168393]
measured.target: ZmDRIK1-K217-P492 (Zea mays)
value: -0.0923
//
compound: CCOc1ccn(-c2ccc(F)cc2)c(=O)c1C(=O)Nc1ccc(Oc2ccnc(N)c2Cl)c(F)c1 [BMS-777607]
measured.target: ZmDRIK1-K217-P492 (Zea mays)
value: -0.979
//
compound: COc1ccc(-c2ccc3c(N4CCOCC4)nc(N4C[C@@H](C)O[C@@H](C)C4)nc3n2)cc1CO [KU-0063794]
measured.target: ZmDRIK1-K217-P492 (Zea mays)
value: -1.21
//
compound: Oc1c2ccccc2c2c3c(cccc13)N=N2 [SP600125]
measured.target: ZmDRIK1-K217-P492 (Zea mays)
value: -1.06
//
compound: O=C1c2ccc(Nc3ccc(F)cc3F)cc2CCc2ccc(OC[C@H](O)CO)cc21 [Skepinone-L]
measured.target: ZmDRIK1-K217-P492 (Zea mays)
value: -0.992
//
compound: O=C1NC(=O)/C(=C/c2ccc3c(c2)OC(F)(F)O3)S1 [AS-604850]
measured.target: ZmDRIK1-K217-P492 (Zea mays)
value: -0.999
//
compound: O=C(Nc1c[nH]nc1-c1nc2ccc(CN3CCOCC3)cc2[nH]1)NC1CC1 [AT9283]
measured.target: ZmDRIK1-K217-P492 (Zea mays)
value: -0.742
//
compound: CCOc1cc(N2CCC(O)CC2)ccc1Nc1ncc2c(n1)N(C)c1ccccc1C(=O)N2C [XMD8-92]
measured.target: ZmDRIK1-K217-P492 (Zea mays)
value: -1.16

====

molecular target: ZmDRIK1-K217-S514 (Zea mays, UniProt C0P4K9); construct: kinase domain, K217-S514; assay: biochemical; conditions: read-out: dTm B, sheet ZmDRIK1-K217-S514;; DSF, Boltzmann fit, 0.1% DMSO

compound: N#CC(C#N)=Cc1ccc(O)c(O)c1
ΔTm at 10 µM [°C]: -0.556
--
compound: Cc1ccc(C(=O)Nc2cccc(C(F)(F)F)c2)cc1Nc1nc(-c2cccnc2)nc2c1cnn2C
ΔTm at 10 µM [°C]: 0.0902
--
compound: Cn1cnc2c(F)c(Nc3ccc(Br)cc3Cl)c(C(=O)NOCCO)cc21
ΔTm at 10 µM [°C]: -0.433
--
compound: COc1ccc(-c2nc(N3CCOCC3)c3sc(CN(C)c4ncc(C(=O)NO)cn4)cc3n2)cn1
ΔTm at 10 µM [°C]: -0.228
--
compound: O=C1NC(=O)C(=Cc2ccc(-c3ccc(F)cc3)o2)S1 (stereo in doubt)
ΔTm at 10 µM [°C]: -0.62
--
compound: Cc1c(F)cc(C(=O)NC2CC2)cc1-c1ccc(C(=O)NCC(C)(C)C)cn1 [Losmapimod (GW856553X)]
ΔTm at 10 µM [°C]: -0.464

====

biological target: ZmDRIK1-K217-S514 (Zea mays); construct: kinase domain, K217-S514; assay: biochemical; details: read-out: dTm B, sheet ZmDRIK1-K217-S514;; DSF, Boltzmann fit, 0.1% DMSO
attribute.measured: ΔTm at 10 µM (°C)

molecule: CCS(=O)(=O)Nc1ccc2c(c1)/C(=C(/Nc1ccc(CN3CCCCC3)cc1)c1ccccc1)C(=O)N2 [Hesperadin]
measured.target: ZmDRIK1-K217-S514 (Zea mays)
value: -0.308
//
molecule: Nc1cccc(-c2cc3c(Oc4cccc(O)c4)ncnc3[nH]2)c1 [TWS119]
measured.target: ZmDRIK1-K217-S514 (Zea mays)
value: -0.297
//
molecule: C[C@@H](Oc1cc(-c2cnn(C3CCNCC3)c2)cnc1N)c1c(Cl)ccc(F)c1Cl [Crizotinib (PF-02341066)]
measured.target: ZmDRIK1-K217-S514 (Zea mays)
value: -0.67
//
molecule: CC1(C)CNc2cc(NC(=O)c3cccnc3NCc3ccncc3)ccc21 [Motesanib Diphosphate (AMG-706)]
measured.target: ZmDRIK1-K217-S514 (Zea mays)
value: -0.221
//
molecule: CO[C@H]1C[C@@H]2CC[C@@H](C)[C@@](O)(O2)C(=O)C(=O)N2CCCC[C@H]2C(=O)O[C@H]([C@H](C)C[C@@H]2CC[C@@H](OCCO)[C@H](OC)C2)CC(=O)[C@H](C)/C=C(\C)[C@@H](O)[C@@H](OC)C(=O)[C@H](C)C[C@H](C)/C=C/C=C/C=C/1C [Everolimus (RAD001)]
measured.target: ZmDRIK1-K217-S514 (Zea mays)
value: -0.327
//
molecule: CC(C)CC(=O)Nc1n[nH]c2c1CN(C(=O)C1CCN(C)CC1)C2(C)C [PHA-793887]
measured.target: ZmDRIK1-K217-S514 (Zea mays)
value: -0.312
//
molecule: CCN(CC)CCCCNc1ncc2cc(-c3cc(OC)cc(OC)c3)c(NC(=O)NC(C)(C)C)nc2n1 [PD173074]
measured.target: ZmDRIK1-K217-S514 (Zea mays)
value: -0.228
//
molecule: COc1ncc(-c2ccc3nccc(-c4ccnnc4)c3c2)cc1NS(=O)(=O)c1ccc(F)cc1F [GSK2126458 (GSK458)]
measured.target: ZmDRIK1-K217-S514 (Zea mays)
value: -0.505
//
molecule: COc1ccc(C(=O)Nc2sc3c(c2C(N)=O)CCCC3)cc1OC [TCS 359]
measured.target: ZmDRIK1-K217-S514 (Zea mays)
value: -0.549
//
molecule: Fc1cc(-c2cccc3ncc(-c4cnn(C5CCNCC5)c4)nc23)cc(F)c1CN1CCOCC1 [NVP-BSK805 2HCl]
measured.target: ZmDRIK1-K217-S514 (Zea mays)
value: -0.602
//
molecule: COC(=O)Nc1ccc(-c2nc(N3CCOCC3)c3cnn(C4CCN(C(=O)OC)CC4)c3n2)cc1 [WYE-354]
measured.target: ZmDRIK1-K217-S514 (Zea mays)
value: -0.255
//
molecule: Cc1cc(Nc2nc(N[C@@H](C)c3ncc(F)cn3)ncc2Cl)[nH]n1 [AZD1480]
measured.target: ZmDRIK1-K217-S514 (Zea mays)
value: -0.215
//
molecule: N[C@@H]1CCCN(c2c(/C=C3\SC(=O)NC3=O)cccc2-c2ccccc2)C1 [AZD1208]
measured.target: ZmDRIK1-K217-S514 (Zea mays)
value: -0.249
//
molecule: Cn1c(Nc2ccc(C(F)(F)F)cc2)nc2cc(Oc3ccnc(-c4ncc(C(F)(F)F)[nH]4)c3)ccc21 [RAF265 (CHIR-265)]
measured.target: ZmDRIK1-K217-S514 (Zea mays)
value: 10.1
//
molecule: CNc1nc(Nc2cn(C(C)(C)C#N)nc2C)ncc1C(F)(F)F [GNE-0877]
measured.target: ZmDRIK1-K217-S514 (Zea mays)
value: -0.602
//
molecule: O=C(NC(NC(=S)Nc1ccc(F)c([N+](=O)[O-])c1)C(Cl)(Cl)Cl)C(c1ccccc1)c1ccccc1 (centres unmarked) [CGK 733]
measured.target: ZmDRIK1-K217-S514 (Zea mays)
value: 0.146
//
molecule: O=c1cc(N2CCOCC2)oc2c(-c3ccccc3)cccc12 [LY294002]
measured.target: ZmDRIK1-K217-S514 (Zea mays)
value: -0.184
